Test system: blackgrass
Assay: Test B pre/postemergence blackgrass
Format: in vivo, Alopecurus myosuroides
Details: Preemergence, Rate 125 g/ha; scale of 0 to 10 where 0 is no effect and 10 is complete control
parameter.measured: Plant response rating, Blackgrass

compound="COC(C)n1c(=O)on(C(=O)N(c2ccccc2)C(C)C)c1=O (centres unmarked)" parameter_measured="Plant response rating, Blackgrass" endpoint_value=0
compound="CC(C)N(C(=O)n1oc(=O)n(C(C)C#N)c1=O)c1ccc(F)cc1F (centres unmarked)" parameter_measured="Plant response rating, Blackgrass" endpoint_value=0
compound=COP(=O)(CCn1c(=O)on(C(=O)N(c2ccccc2)C(C)C)c1=O)OC parameter_measured="Plant response rating, Blackgrass" endpoint_value=0
compound=CC(C)N(C(=O)n1oc(=O)n(C(C)C)c1=O)c1ccc(Br)cc1 parameter_measured="Plant response rating, Blackgrass" endpoint_value=9
compound=CC(C)N(C(=O)n1oc(=O)n(CC(=O)N(C)C)c1=O)c1ccc(F)cc1F parameter_measured="Plant response rating, Blackgrass" endpoint_value=6

---

Reported Giant foxtail plant response rating values are given for each entry in this list.
Test system: giant foxtail
Assay: Test B pre/postemergence giant foxtail
Format: in vivo, Setaria faberii
Settings: Postemergence, Rate 62 g/ha; scale 0 to 10, 0 is no effect, 10 is complete control
Procedure: […] At the same time, these crop and weed species were also treated with postemergence applications of test chemicals formulated in the same manner. […] Treated plants and controls were maintained in a greenhouse for twelve to sixteen days, after which all species were compared to controls and visually evaluated. […]
parameter.measured: Giant foxtail plant response rating

smiles_data=COc1ccc(-n2c(=O)on(C(=O)N(c3ccc(F)cc3F)C(C)C)c2=O)c(OC)c1 parameter_measured="Giant foxtail plant response rating" endpoint_value=0
smiles_data=Cc1ccc(N(C(=O)n2oc(=O)n(-c3ccccc3C)c2=O)C(C)C)cc1 parameter_measured="Giant foxtail plant response rating" endpoint_value=0
smiles_data=CC(C)N(C(=O)n1oc(=O)n(-c2ccccc2C(F)(F)F)c1=O)c1ccc(F)cc1 parameter_measured="Giant foxtail plant response rating" endpoint_value=0
smiles_data=COc1ccccc1-n1c(=O)on(C(=O)N(c2ccc(F)cc2F)C(C)C)c1=O parameter_measured="Giant foxtail plant response rating" endpoint_value=0
smiles_data=CC(C)N(C(=O)n1oc(=O)n(Cc2ccccc2)c1=O)c1ccc(F)cc1F parameter_measured="Giant foxtail plant response rating" endpoint_value=0
smiles_data=Cc1cccc(C(C)C)c1-n1c(=O)on(C(=O)N(c2ccc(Cl)cc2)C(C)C)c1=O parameter_measured="Giant foxtail plant response rating" endpoint_value=0
smiles_data=Cc1cccc(C(C)C)c1-n1c(=O)on(C(=O)N(c2ccc(F)cc2)C(C)C)c1=O parameter_measured="Giant foxtail plant response rating" endpoint_value=0
smiles_data=Cc1cc(C)c(-n2c(=O)on(C(=O)N(c3ccc(Cl)cc3)C(C)C)c2=O)c(C)c1 parameter_measured="Giant foxtail plant response rating" endpoint_value=0
smiles_data=CCN(C(=O)n1oc(=O)n(-c2ccccc2OC)c1=O)C1CCCCC1 parameter_measured="Giant foxtail plant response rating" endpoint_value=0
smiles_data=COc1ccccc1-n1c(=O)on(C(=O)N(c2ccc(F)cc2)C(C)C)c1=O parameter_measured="Giant foxtail plant response rating" endpoint_value=0

---

Tested on: crabgrass
Assay: Test B pre/postemergence crabgrass
Type: in vivo, Digitaria sanguinalis
Details: Rate 250 g/ha; Postemergence
parameter.measured: Plant response rating (0 to 10; 0 is no effect, 10 is complete control), Crabgrass

molecule="CCc1ccc(N(C(=O)n2oc(=O)n(-c3ccccc3C)c2=O)C(C)C)cc1 [Compound 230]" endpoint_value=0
molecule="COC(=O)CCCn1c(=O)on(C(=O)N(c2ccc(F)cc2)C(C)C)c1=O [Compound 266]" endpoint_value=3
molecule="CC(C)N(C(=O)n1oc(=O)n(-c2cccnc2)c1=O)c1ccc(F)cc1 [Compound 234]" endpoint_value=0
molecule="CCCCc1ccc(N(C(=O)n2oc(=O)n(-c3ccccc3C)c2=O)C(C)C)cc1 [Compound 229]" endpoint_value=0
molecule="CC(C)N(C(=O)n1oc(=O)n(CC=Cc2ccccc2)c1=O)c1ccc(F)cc1 [Compound 210]" endpoint_value=0
molecule="Cc1ccccc1-n1c(=O)on(C(=O)N(c2ccc(F)cc2)C2CCC2)c1=O [Compound 200]" endpoint_value=2
molecule="C=CCn1c(=O)on(C(=O)N(c2ccc(F)cc2)C2CCCCCC2)c1=O [Compound 249]" endpoint_value=0
